- procedure-summary: Volume of distribution in human at 10 mg/kg, iv
- Format: ADME, organism-based
- Design: dose 10 mg/kg, route intravenous
- conditions: in vivo

chemical-structure | Vd (L/kg)
CCCn1cnc(C[C@H](CCCN)C(=O)O)c1 | 0.5

----------
Listing: half-life of selected compounds
- procedure-summary: Half life in rat at 2 mg/kg, iv
- Assay type: ADME, organism-based
- Design: dose 2 mg/kg, route intravenous
- conditions: in vivo

chemical-structure | half-life (h)
CCCn1cnc(C[C@H](CCCN)C(=O)O)c1 | 2.1
CCCn1cnc(C[C@H](OCCN)C(=O)O)c1 | 2.7

----------
- target-or-test-system: Carboxypeptidase B2 (Homo sapiens, UniProt Q96IY4)
- Sequence (Q96IY4 whole entry): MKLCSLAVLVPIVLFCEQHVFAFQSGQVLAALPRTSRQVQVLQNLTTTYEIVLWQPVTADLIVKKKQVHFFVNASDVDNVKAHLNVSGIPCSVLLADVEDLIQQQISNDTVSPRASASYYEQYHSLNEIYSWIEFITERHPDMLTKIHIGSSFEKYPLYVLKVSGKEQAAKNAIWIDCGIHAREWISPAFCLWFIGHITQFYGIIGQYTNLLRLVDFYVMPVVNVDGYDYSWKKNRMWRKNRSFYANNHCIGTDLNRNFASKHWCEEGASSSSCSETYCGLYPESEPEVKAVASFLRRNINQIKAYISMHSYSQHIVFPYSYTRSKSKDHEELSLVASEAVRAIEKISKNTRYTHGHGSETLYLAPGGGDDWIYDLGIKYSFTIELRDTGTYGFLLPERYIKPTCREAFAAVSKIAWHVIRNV
- procedure-summary: Inhibition of active form of human recombinant TAFI assessed as substrate turnover every 15 seconds for 30 mins
pKi: −log10 of the molar value.
We begin with a simple list: items and their reported pKi.

compound | relation-sign | pKi
Cc1ccccc1-n1cnc(CC(OCCN)C(=O)O)c1 (racemic) | = | 7.19
CC(C)(C)c1ccc(-n2cnc(C[C@H](OCCN)C(=O)O)c2)cc1 | = | 8.24
CCCn1cnc(CC(OCCNC)C(=O)O)c1 (racemic) | = | 6.39
C[C@H](CN)O[C@@H](Cc1cn(-c2ccccn2)cn1)C(=O)O | = | 8.24
NCCO[C@@H](Cc1cn(CCC2CCCCC2)cn1)C(=O)O | = | 8.09
C[C@H](CN)O[C@@H](Cc1cn(-c2ccccc2)cn1)C(=O)O | = | 8.12
CCCn1cnc(C[C@H](OCCN)C(=O)O)c1 | = | 8.17
CCCCn1cnc(CC(OCCN)C(=O)O)c1 (racemic) | = | 7.82
CCCn1cnc(C[C@@H](OCCN)C(=O)O)c1 | < | 5.00
CCCn1cnc(C[C@H](NCCN)C(=O)O)c1 | = | 6.82
CCCn1cnc(C[C@H](CCCN)C(=O)O)c1 | = | 7.80
NCCO[C@@H](Cc1cn(-c2ccccc2)cn1)C(=O)O | = | 8.46

----------
- procedure-summary: Volume of distribution in rat at 2 mg/kg, iv
- Type: ADME, organism-based
- Set-up: dose 2 mg/kg, route intravenous
- conditions: in vivo
Each record here notes measured Vd.

chemical-structure | Vd
CCCn1cnc(C[C@H](OCCN)C(=O)O)c1 | 3.1 L/kg
CCCn1cnc(C[C@H](CCCN)C(=O)O)c1 | 1.9 L/kg

----------
- procedure-summary: Half life in human at 10 mg/kg, iv
- Format: ADME, organism-based
- Design: dose 10 mg/kg, route intravenous
- conditions: in vivo
measured-attribute: half-life (h)

chemical-structure | experimental-value
CCCn1cnc(C[C@H](CCCN)C(=O)O)c1 | 4

----------
- target-or-test-system: Carboxypeptidase B (Homo sapiens)
- Sequence (P15086 whole entry): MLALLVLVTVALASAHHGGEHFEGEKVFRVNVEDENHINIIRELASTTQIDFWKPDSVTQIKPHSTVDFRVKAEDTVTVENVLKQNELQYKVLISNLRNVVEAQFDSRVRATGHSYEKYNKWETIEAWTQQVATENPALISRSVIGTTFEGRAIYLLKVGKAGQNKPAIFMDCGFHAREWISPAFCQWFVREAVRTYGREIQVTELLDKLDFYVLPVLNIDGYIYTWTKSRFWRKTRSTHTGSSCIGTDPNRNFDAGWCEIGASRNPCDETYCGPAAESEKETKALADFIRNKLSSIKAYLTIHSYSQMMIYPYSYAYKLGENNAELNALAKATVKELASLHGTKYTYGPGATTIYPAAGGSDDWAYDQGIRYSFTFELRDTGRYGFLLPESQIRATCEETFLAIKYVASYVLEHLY

chemical-structure | unit-label | Ki
CCCn1cnc(C[C@H](OCCN)C(=O)O)c1 | nM | 238
CCCn1cnc(C[C@H](NCCN)C(=O)O)c1 | nM | 1160
C[C@H](CN)O[C@@H](Cc1cn(-c2ccccc2)cn1)C(=O)O | nM | 240
NCCO[C@@H](Cc1cn(CCC2CCCCC2)cn1)C(=O)O | nM | 27

----------
- procedure-summary: Clearance in rat at 2 mg/kg, iv
- Format: ADME, organism-based
- Set-up: dose 2 mg/kg, route intravenous
- conditions: in vivo
measured-attribute: clearance (mL/min/kg)

compound | unit-label | experimental-value
CCCn1cnc(C[C@H](OCCN)C(=O)O)c1 | mL/min/kg | 13.4
CCCn1cnc(C[C@H](CCCN)C(=O)O)c1 [UK-396,082] | mL/min/kg | 10.2

----------
- procedure-summary: Half life in rat at 5 mg/kg, po
- Format: ADME, organism-based
- Design: dose 5 mg/kg, route oral
- conditions: in vivo

molecule | unit-label | half-life
CCCn1cnc(C[C@H](CCCN)C(=O)O)c1 [UK-396,082] | h | 2.4
CCCn1cnc(C[C@H](OCCN)C(=O)O)c1 | h | 2.1
